tested-on: Grb2 SH2 (UniProt P62993)
Sequence (P62993 whole entry, looked up, the tested form may be a part): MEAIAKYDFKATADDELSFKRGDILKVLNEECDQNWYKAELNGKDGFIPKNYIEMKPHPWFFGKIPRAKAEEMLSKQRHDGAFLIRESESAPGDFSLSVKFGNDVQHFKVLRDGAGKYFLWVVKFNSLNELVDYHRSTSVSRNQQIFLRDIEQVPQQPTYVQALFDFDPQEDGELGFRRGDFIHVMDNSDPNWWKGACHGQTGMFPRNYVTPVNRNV
protocol-description: SH2 binding enrichment of the phosphorylated peptide, bacterial display (enrichment ratio); higher = better substrate or ligand; peptides without Tyr show the background;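 further: peptide library displayed on the E. coli surface as eCPX fusions, selected cells deep-sequenced, score is each peptide's frequency after selection divided by its frequency in the input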
value-type: SH2 binding enrichment
Answer as a number with no unit attached.

Would you please look over these solved cases?
# sequence-text, SH2 binding enrichment
records = [
    ("HDHFGYRQSVT [CD55_Y245_R240H_YF]", 0.803),
    ("GSERDYTYDEL [EIF2S2_Y174_E177D]", 0.82),
    ("PIPAAYNRFDQ [CDC73_Y290_YF]", 0.792),
]

Which SH2 binding enrichment is listed for YKEQGYHRLPS [RIN1_Y681_P686S] ?
0.802

Which SH2 binding enrichment is listed for SYDLDYDSVQP [MYC_Y16_N11S] ?
0.804

Measured values drawn from the supplement of paper PMC10065799 for this set.
